Data provenance: ChEMBL document CHEMBL5370608

# protocol: Chemical stability of compound in sodium phosphate buffer at pH 7.4 assessed as half life by UPLC analysis
# Assay type: physicochemical
experimental.endpoint: half-life (h)

compound	recorded.result
O=C(NO)c1cc(F)c(Cn2nnc(-c3ccccn3)n2)c(F)c1	1730
FC(F)c1nnc(-c2ccc(Cn3nnc(-c4ccccn4)n3)cc2)o1	240

P = FC(F)c1nnc(-c2ccc(Cn3nnc(-c4ccccn4)n3)nc2)o1
Q = CS(=O)(=O)NCC(Nc1ncc(-c2nnc(C(F)F)o2)cn1)c1ccc(OC(F)(F)F)cc1 (stereo unspecified)
R = Fc1cc(-c2nnc(C(F)F)o2)cc(F)c1Cn1nnc(-c2ccccn2)n1
S = FC(F)c1nnc(-c2cnc(Cn3nnc(-c4ccccn4)n3)nc2)o1
**Query** Arrange these 4 compounds in increasing order of half-life. The labels, placed in the requested order, form the answer.
**Result** S, R, P, Q

###

# protocol: Chemical stability of compound in HCL solution at pH 1 assessed as half life by UPLC analysis
# Assay type: physicochemical
experimental.endpoint: half-life (h)

molecule	half-life (h)
FC(F)c1nnc(-c2ccc(Cn3nnc(-c4ccccn4)n3)cc2)o1	7.44

A = O=C(NO)c1cc(F)c(Cn2nnc(-c3ccccn3)n2)c(F)c1
B = FC(F)c1nnc(-c2cnc(Cn3nnc(-c4ccccn4)n3)nc2)o1
**Query** Decide: A or B , by lowest recorded half-life. Give the label of your selection.
**Result** B
(B: 7.2 h, A: 624 h)

I = CS(=O)(=O)NCC(Nc1ncc(-c2nnc(C(F)F)o2)cn1)c1ccc(OC(F)(F)F)cc1 (stereo unspecified)
II = FC(F)c1nnc(-c2ccc(Cn3nnc(-c4ccccn4)n3)nc2)o1
**Query** API: POST /compare with I and II ; response names the item with higher half-life. Identify your pick by its label.
**Result** I

###

# target.under.test: Protein deacetylase HDAC6 (Mus musculus, UniProt Q9Z2V5)
# Sequence (Q9Z2V5 whole entry): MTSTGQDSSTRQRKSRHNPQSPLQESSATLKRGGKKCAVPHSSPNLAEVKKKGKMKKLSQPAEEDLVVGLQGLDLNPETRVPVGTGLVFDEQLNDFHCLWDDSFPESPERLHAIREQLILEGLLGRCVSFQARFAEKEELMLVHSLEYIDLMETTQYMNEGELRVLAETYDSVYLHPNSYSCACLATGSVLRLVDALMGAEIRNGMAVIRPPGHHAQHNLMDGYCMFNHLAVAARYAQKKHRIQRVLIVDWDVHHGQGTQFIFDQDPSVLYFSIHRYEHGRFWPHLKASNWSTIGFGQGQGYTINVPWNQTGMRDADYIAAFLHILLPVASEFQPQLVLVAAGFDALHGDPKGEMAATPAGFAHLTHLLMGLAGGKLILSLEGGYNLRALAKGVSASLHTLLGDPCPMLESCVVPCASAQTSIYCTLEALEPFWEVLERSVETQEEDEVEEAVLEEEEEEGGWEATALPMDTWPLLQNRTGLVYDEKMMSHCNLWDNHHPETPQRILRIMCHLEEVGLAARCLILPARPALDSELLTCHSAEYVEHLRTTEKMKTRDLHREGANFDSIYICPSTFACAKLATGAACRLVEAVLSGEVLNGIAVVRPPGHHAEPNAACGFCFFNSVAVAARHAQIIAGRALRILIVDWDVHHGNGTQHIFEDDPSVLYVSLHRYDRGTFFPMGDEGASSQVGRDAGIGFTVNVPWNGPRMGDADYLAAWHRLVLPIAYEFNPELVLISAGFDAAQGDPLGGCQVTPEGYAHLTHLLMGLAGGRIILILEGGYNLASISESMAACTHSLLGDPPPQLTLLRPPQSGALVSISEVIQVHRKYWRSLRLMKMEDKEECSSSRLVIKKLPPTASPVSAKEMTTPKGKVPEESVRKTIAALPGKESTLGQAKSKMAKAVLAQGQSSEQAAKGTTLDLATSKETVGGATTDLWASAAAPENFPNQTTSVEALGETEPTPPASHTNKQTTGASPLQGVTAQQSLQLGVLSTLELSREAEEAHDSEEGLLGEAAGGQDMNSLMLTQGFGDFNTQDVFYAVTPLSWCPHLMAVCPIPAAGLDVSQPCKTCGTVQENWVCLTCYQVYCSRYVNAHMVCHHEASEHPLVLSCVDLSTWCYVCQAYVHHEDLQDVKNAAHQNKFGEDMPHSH
# protocol: Inhibition of HDAC6 in mouse LA-4 cells assessed as deacetylation of acetylated alpha-tubulin level incubated for 24 hrs by Western blot analysis
experimental.endpoint: IC50 (nM)

A = O=C(NO)c1cnc(NC2(c3ccccc3)CCC(F)(F)CC2)nc1
B = FC(F)c1nnc(-c2ccc(Cn3nnc(-c4ccccn4)n3)nc2)o1
**Query** Lab note: record which item had the higher IC50, A or B . Write the label of whichever entry you select.
**Result** B

###

# protocol: Metabolic stability in rat hepatocytes assessed as intrinsic clearance at 1 uM measured per 10^6 cells incubated at 2 to 60 mins by LC-MS/MS analysis
# Type: ADME, cell-based, Hepatocyte
# assay.conditions: time 2-60 min, read-out: CLH
experimental.endpoint: hepatocyte CLint at 1 µM (µL/min/1e6 cells)
The reply should be a number in µL/min/1e6 cells, with the unit left off.

**Query** Please give measured hepatocyte CLint at 1 µM of the following entry: O=C(NO)c1cnc(NC2(c3ccccc3)CCC(F)(F)CC2)nc1
**Result** 51

###

# Test system: THP-1
# protocol: Cytotoxicity against human THP-1 cells assessed as reduction in cell viability by alamar blue staining based assay
# Assay type: functional
# assay.conditions: read-out: IC50
IC50 listing for selected compounds.
The reply should contain only the number, in µM.

compound	experimental.endpoint	recorded.result
FC(F)c1nnc(-c2cnc(NC3(c4ccccc4)CCC(F)(F)CC3)nc2)o1	IC50	130
O=C(NO)c1cc(F)c(Cn2nnc(-c3ccccn3)n2)c(F)c1	IC50	60
O=C(NO)c1cnc(NC2(c3ccccc3)CCC(F)(F)CC2)nc1	IC50	94

Alright, here's another compound for you.
**Query** Look up and report measured IC50 for this entry: CS(=O)(=O)NCC(Nc1ncc(-c2nnc(C(F)F)o2)cn1)c1ccc(OC(F)(F)F)cc1 (centres undefined)
**Result** 126
